TESTED SYSTEM: Neuromedin-K receptor (Homo sapiens)
Sequence (P29371 whole entry): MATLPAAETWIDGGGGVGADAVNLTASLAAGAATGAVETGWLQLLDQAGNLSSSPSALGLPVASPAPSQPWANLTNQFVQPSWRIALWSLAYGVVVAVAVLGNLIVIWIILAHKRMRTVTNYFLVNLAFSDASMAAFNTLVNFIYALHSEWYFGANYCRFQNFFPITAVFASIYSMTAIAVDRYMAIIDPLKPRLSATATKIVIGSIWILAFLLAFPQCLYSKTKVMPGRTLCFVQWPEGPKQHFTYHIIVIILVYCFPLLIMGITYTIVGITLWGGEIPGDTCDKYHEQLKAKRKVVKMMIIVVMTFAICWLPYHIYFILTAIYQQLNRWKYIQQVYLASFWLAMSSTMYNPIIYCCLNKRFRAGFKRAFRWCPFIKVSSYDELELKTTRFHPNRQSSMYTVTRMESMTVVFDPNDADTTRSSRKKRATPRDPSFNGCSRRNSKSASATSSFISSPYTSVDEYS
Where a SMILES comes first, the peptide text is derived from it. [ ]: non-standard residue; d: D form. NMeF = CN[C@@H](Cc1ccccc1)C(=O)O
EXPERIMENTAL ENDPOINT: Ki (nM)
Please reply with the bare figure in nM and do not write the unit itself.

// returns reported Ki for input CSCC[C@H](NC(=O)[C@H](CC(C)C)NC(=O)CNC(=O)[C@H](Cc1ccccc1)N(C)C(=O)[C@H](Cc1ccccc1)NC(=O)[C@H](Cc1ccccc1)NC(=O)[C@H](CC(=O)O)NC(=O)[C@H](Cc1cnc[nH]1)NC(=O)[C@H](CCSC)NC(=O)[C@@H](N)CC(=O)O)C(N)=O [NKB [MePhe7]] (H-DMHDFF[NMeF]GLM-NH2) 0.31

Value source: BindingDB's records for PubMed 9190866
